Numbers sourced from ChEMBL document CHEMBL1201862.

System: MDA-MB-435
Assay: NCI tumour cell line growth inhibition, 48 h
Activity calls are given as the source filed them. Cut-off read from the data, not from the text of the source: active = GI50 up to about 1.1 µM and inactive = higher.
property.name: GI50

[[record]]
smiles_code = "Cc1ccc(S(=O)(=O)N/N=C2/C(=O)Nc3c(Cl)cc(Cl)cc32)cc1"
result = "51.6 µM (inactive)"

[[record]]
smiles_code = "CC(=O)O[C@H]1CC[C@@]2(C)C(=CC[C@H]3[C@@H]4CC[C@H](c5cc(C(F)(F)F)n(C(C)=O)n5)[C@@]4(C)CC[C@@H]32)C1"
result = "9.27 µM (inactive)"

[[record]]
smiles_code = "Clc1ccccc1/C=C/c1nsc(/C=C/c2ccccc2Cl)n1"
result = "42.6 µM (inactive)"

[[record]]
smiles_code = "Cc1oc2nc(N(C)C)n3cnnc3c2c1C"
result = "> 100 µM (inactive)"

[[record]]
smiles_code = "O=C(Nc1ccc(C(F)(F)F)cc1)NC(F)(F)F"
result = "> 100 µM (inactive)"


====

System: M19-MEL
Assay: NCI tumour cell line growth inhibition, 48 h
Calls of active or inactive are those of the source. Rule as the data show it: active = GI50 up to about 1.1 µM and inactive = higher.
# Lookup of reported GI50 keyed by entry
property.name: GI50

[[record]]
compound = "C#Cc1c(C)c(/C=C/C(C)=C/C(=O)OC)n(C)c1C"
system_under_test = "M19-MEL"
property_name = "GI50"
result = "> 100 µM (inactive)"

[[record]]
compound = "COC(=O)/C(Cl)=C1/CC1COCc1ccccc1 (centres undefined)"
system_under_test = "M19-MEL"
property_name = "GI50"
result = "33.3 µM (inactive)"

[[record]]
compound = "N=C(N)NS(=O)(=O)c1ccc(Nc2c3ccccc3nc3c(C(=O)Nc4ccc(S(N)(=O)=O)cc4)ccc(Cl)c23)cc1"
system_under_test = "M19-MEL"
property_name = "GI50"
result = "> 100 µM (inactive)"

[[record]]
compound = "Clc1ccc(CN2COc3c(cc(Cl)c4cccnc34)C2)cc1"
system_under_test = "M19-MEL"
property_name = "GI50"
result = "2.28 µM (inactive)"

[[record]]
compound = "COc1cc(C2C(Cl)C(=O)N2NC(=O)c2ccc(NC(C)=O)cc2)ccc1O (centres undefined)"
system_under_test = "M19-MEL"
property_name = "GI50"
result = "> 100 µM (inactive)"

[[record]]
compound = "O=S1(=O)NN=C(NCc2ccc(Cl)c(Cl)c2)c2ccccc21"
system_under_test = "M19-MEL"
property_name = "GI50"
result = "> 100 µM (inactive)"

[[record]]
compound = "N#CCC(=O)N1CCCOCCC1"
system_under_test = "M19-MEL"
property_name = "GI50"
result = "> 100 µM (inactive)"

[[record]]
compound = "CN1CCCCC(C(O)(c2ccccc2)c2ccccc2)C1=O (centres undefined)"
system_under_test = "M19-MEL"
property_name = "GI50"
result = "> 100 µM (inactive)"

[[record]]
compound = "Nc1nc2c(nnn2C2C=C(CO)C(O)C2O)c(=O)[nH]1 (centres undefined)"
system_under_test = "M19-MEL"
property_name = "GI50"
result = "> 100 µM (inactive)"

[[record]]
compound = "CC(C)C1CC[C@@H](C)C[C@@]1(O)CC(N)=O (some centres undefined)"
system_under_test = "M19-MEL"
property_name = "GI50"
result = "> 100 µM (inactive)"

[[record]]
compound = "CCC1C(C)c2c([nH]c3ccccc23)C2C(=O)N(c3ccccc3)C(=O)C21 (centres undefined)"
system_under_test = "M19-MEL"
property_name = "GI50"
result = "15.8 µM (inactive)"

[[record]]
compound = "N#CC(NNC(=O)Cc1ccccc1)c1cccc(O)c1 (centres undefined)"
system_under_test = "M19-MEL"
property_name = "GI50"
result = "> 100 µM (inactive)"

[[record]]
compound = "COc1ccccc1/N=C(\\N)N/N=C/c1c[nH]c2ccccc12"
system_under_test = "M19-MEL"
property_name = "GI50"
result = "11.1 µM (inactive)"

[[record]]
compound = "c1cc2ccc1C1NCCCN1CCN1CCCNC1c1ccc(cc1)C1NCCCN1CCN1CCCNC21 (centres undefined)"
system_under_test = "M19-MEL"
property_name = "GI50"
result = "95.7 µM (inactive)"

[[record]]
compound = "COc1ccc(-c2cc(=O)c3cc(O)ccc3o2)c(OC)c1OC"
system_under_test = "M19-MEL"
property_name = "GI50"
result = "45.3 µM (inactive)"

[[record]]
compound = "c1ccc(-c2[nH]c(-c3ccccc3)c(-c3cnccn3)c2-c2cnccn2)cc1"
system_under_test = "M19-MEL"
property_name = "GI50"
result = "> 100 µM (inactive)"

[[record]]
compound = "COc1cc(C(=O)C(CO)Oc2ccccc2OC)ccc1O (centres undefined)"
system_under_test = "M19-MEL"
property_name = "GI50"
result = "> 100 µM (inactive)"

[[record]]
compound = "NNC(=S)N/N=C(\\c1nc2ccc(Cl)cc2nc1O)C(O)c1ccc(Cl)cc1Cl (centres undefined)"
system_under_test = "M19-MEL"
property_name = "GI50"
result = "> 100 µM (inactive)"

[[record]]
compound = "O=S1(=O)OCCOS(=O)(=O)C1(Br)Cc1ccccc1"
system_under_test = "M19-MEL"
property_name = "GI50"
result = "> 100 µM (inactive)"

[[record]]
compound = "C=CNC(=S)n1nc(-c2ccccc2NC(=O)C(F)(F)F)c(=O)n(C(=S)NC=C)c1=S"
system_under_test = "M19-MEL"
property_name = "GI50"
result = "31.8 µM (inactive)"

[[record]]
compound = "O=C1CCC(C(=O)O)C2=C1CCCC2 (centres undefined)"
system_under_test = "M19-MEL"
property_name = "GI50"
result = "> 100 µM (inactive)"

[[record]]
compound = "Cc1c2cc[n+]([O-])cc2c(C)c2c1[nH]c1ccccc12"
system_under_test = "M19-MEL"
property_name = "GI50"
result = "13.6 µM (inactive)"

[[record]]
compound = "CC1=NN(c2ccccc2)C(=O)C1=C1SCCCS1"
system_under_test = "M19-MEL"
property_name = "GI50"
result = "32.1 µM (inactive)"

[[record]]
compound = "Oc1ncnc2c1CCCN2"
system_under_test = "M19-MEL"
property_name = "GI50"
result = "> 100 µM (inactive)"


====

System: UO-31
Assay: NCI tumour cell line growth inhibition, 48 h
Active and inactive are the calls of the source. Rule as the data show it: active = GI50 up to about 1.1 µM and inactive = higher.
# Lookup of reported GI50 keyed by entry
property.name: GI50

[[record]]
compound = "CN(C)Cc1ccc(-c2cc3onc(-c4ccccc4)c3c(=O)n2C)cc1"
system_under_test = "UO-31"
property_name = "GI50"
result = "11.6 µM (inactive)"

[[record]]
compound = "CN(CCNC(=O)c1nn(C)c2c1Cc1ccccc1-2)CCNC(=O)c1nn(C)c2c1Cc1ccccc1-2"
system_under_test = "UO-31"
property_name = "GI50"
result = "10.4 µM (inactive)"

[[record]]
compound = "Nc1nc(Cl)nc2c1ncn2C1CCC(COP(=O)(O)OP(=O)(O)OP(=O)(O)O)O1 (stereo unspecified)"
system_under_test = "UO-31"
property_name = "GI50"
result = "12.7 µM (inactive)"

[[record]]
compound = "Nc1nc2c(nnn2C2C=C(CO)C(O)C2O)c(=O)[nH]1 (stereo unspecified)"
system_under_test = "UO-31"
property_name = "GI50"
result = "> 100 µM (inactive)"

[[record]]
compound = "CC1=C(C(=O)Nc2ccccc2)C(c2cccc3ccccc23)C(C(=O)Nc2ccccc2)=C(C)N1"
system_under_test = "UO-31"
property_name = "GI50"
result = "21.6 µM (inactive)"

[[record]]
compound = "COc1cc2c(cc1OC)C1C(O)C(OC)C=C3CC[N+](C)(C2)C31 (stereo unspecified)"
system_under_test = "UO-31"
property_name = "GI50"
result = "> 100 µM (inactive)"

[[record]]
compound = "[O-][n+]1c2ccccc2[n+]([O-])c2cc(Br)ccc21"
system_under_test = "UO-31"
property_name = "GI50"
result = "9.48 µM (inactive)"

[[record]]
compound = "CC(=O)O[C@H]1CC[C@@]2(C)C(=CC[C@H]3[C@@H]4CC[C@H](c5cc(C(F)(F)F)n(C(C)=O)n5)[C@@]4(C)CC[C@@H]32)C1"
system_under_test = "UO-31"
property_name = "GI50"
result = "1.67 µM (inactive)"

[[record]]
compound = "COc1ccc(/N=C\\c2ccc(N(CCC#N)CCC#N)cc2)cc1"
system_under_test = "UO-31"
property_name = "GI50"
result = "44.5 µM (inactive)"

[[record]]
compound = "CC(C)(CO)CNc1nc(N)nc(Cl)c1N"
system_under_test = "UO-31"
property_name = "GI50"
result = "> 100 µM (inactive)"

[[record]]
compound = "NC(CC(=O)Nc1cc(C(F)(F)F)ccc1Cl)=NO"
system_under_test = "UO-31"
property_name = "GI50"
result = "> 100 µM (inactive)"

[[record]]
compound = "Cc1ccc(Nc2ccc(Nc3ccc(C)cc3)c3c2C(=O)c2c(O)ccc(O)c2C3=O)cc1"
system_under_test = "UO-31"
property_name = "GI50"
result = "> 100 µM (inactive)"

[[record]]
compound = "COc1ccc(-c2csc(Cc3nc4ccccc4c(=O)n3-c3ccc(Cl)cc3)n2)cc1"
system_under_test = "UO-31"
property_name = "GI50"
result = "34.6 µM (inactive)"

[[record]]
compound = "CC(=O)OCC1OC(NC(=S)Nn2c(-c3ccccc3)nc3ccccc3c2=O)C(OC(C)=O)C(OC(C)=O)C1OC(C)=O (stereo unspecified)"
system_under_test = "UO-31"
property_name = "GI50"
result = "> 100 µM (inactive)"

[[record]]
compound = "CN(C)S(=O)(=O)/N=C/c1cccc(/C=N/S(=O)(=O)N(C)C)c1"
system_under_test = "UO-31"
property_name = "GI50"
result = "> 100 µM (inactive)"

[[record]]
compound = "O=C(Nc1ccc(Cl)cc1Cl)C(=O)C(C(=O)c1ccncc1)C1OC(=O)c2ccccc21 (stereo unspecified)"
system_under_test = "UO-31"
property_name = "GI50"
result = "> 100 µM (inactive)"

[[record]]
compound = "CC1=CC(=O)N2C(OC[C@@H]2c2ccccc2)O1 (stereo partly specified)"
system_under_test = "UO-31"
property_name = "GI50"
result = "> 100 µM (inactive)"

[[record]]
compound = "Nc1ncnc2oc(-c3cccs3)nc12"
system_under_test = "UO-31"
property_name = "GI50"
result = "> 100 µM (inactive)"

[[record]]
compound = "N#CCC(=O)N1CCCOCCC1"
system_under_test = "UO-31"
property_name = "GI50"
result = "> 100 µM (inactive)"

[[record]]
compound = "CCOC(=O)NC(C(=O)OCC)(N1CCN(c2cc3c(cc2F)c(=O)c(C(=O)O)cn3CC)CC1)C(F)(F)F (stereo unspecified)"
system_under_test = "UO-31"
property_name = "GI50"
result = "> 100 µM (inactive)"

[[record]]
compound = "NS(=O)(=O)c1nnc(NC(=O)c2cccc([N+](=O)[O-])c2)s1"
system_under_test = "UO-31"
property_name = "GI50"
result = "> 100 µM (inactive)"

